assayTarget: T1, Sumo-ELL2^Occ, wild type (human, UniProt O00472 519-640)
T1 sequence (looked up): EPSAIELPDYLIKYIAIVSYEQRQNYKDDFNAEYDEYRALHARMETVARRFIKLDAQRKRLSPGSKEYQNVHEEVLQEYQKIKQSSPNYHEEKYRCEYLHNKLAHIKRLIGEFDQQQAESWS
protocolSummary: fluorescence polarisation
particulars: both partners purified
For each record, write down the corresponding other.

# annotated cases, reported other shown
>>> readoutvalue("His-tagged AFF4^ELLBow (301–351) L331D (peptide, UniProt Q9UHB7 301-351, looked up) PSQPLDASASGDVSCVDEILKEMTHSWPPPDTAIHTPCKTEPSKFPFPTKE")
"~20 fold"
>>> readoutvalue("His-tagged AFF4^ELLBow (301–351) I319D/L320D (peptide, UniProt Q9UHB7 301-351, looked up) PSQPLDASASGDVSCVDEDDKEMTHSWPPPLTAIHTPCKTEPSKFPFPTKE")
"> 25 fold"

With those in mind, consider the next binder.
Request: # input binder: His-tagged AFF4^ELLBow (301–351) P342D (peptide, UniProt Q9UHB7 301-351, looked up) PSQPLDASASGDVSCVDEILKEMTHSWPPPLTAIHTPCKTEDSKFPFPTKE ; wanted: its other
Response: ~3 fold
